Data provenance: ChEMBL document CHEMBL4831557

Tested on: U2OS
TEST_DETAILS: Cytotoxicity against human U2OS cells assessed as reduction in cell viability incubated for 48 hrs by MTT assay
Assay type: functional, cell-based
REPORTED_ENDPOINT: pIC50
When answering, recall that pIC50 equals minus log10 of the concentration in mol/L, and write that number alone.

See these solved cases before continuing.
{"SMILES_STR": "C=C1C(=O)O[C@H]2[C@H]1CC/C(COC(=O)c1cnc3ccccc3c1)=C/CC[C@@]1(C)O[C@@H]21", "TESTED_TARGET": "U2OS", "pIC50": 5.59}
{"SMILES_STR": "C=C1C(=O)O[C@H]2[C@H]1C[C@H](OC(=O)c1ccc3ncccc3c1)C(C)=C1CC[C@@](C)(O)[C@@H]12", "TESTED_TARGET": "U2OS", "pIC50": 5.63}
{"SMILES_STR": "C/C1=C\\CC[C@@]2(C)O[C@H]2[C@H]2OC(=O)/C(=C\\c3ccc4nccnc4c3)[C@@H]2CC1", "TESTED_TARGET": "U2OS", "pIC50": 5.52}

Please provide the recorded pIC50 for C=C1C(=O)O[C@H]2[C@H]1CC/C(COC(=O)c1ccc3cnccc3c1)=C/CC[C@@]1(C)O[C@@H]21 , tested on U2OS.
5.59
